As shown below, each of these compounds has a reported IC50 value.
# Assayed system: GCN2 (Homo sapiens)
# Assay method text: GCN2 enzymatic endpoint assay: phosphorylation of GFP-eIF2α measured by TR-FRET (Lanthascreen)
# Assay type: biochemical
# Setup conditions: tested as described in Example 77; compound and/or hydrochloride, dihydrochloride or trifluoroacetic acid salt; read-out: IC 50 Activity
# Method: The Enzymatic assay was run as an endpoint assay to quantify the activity of the serine/threonine GCN2 kinase by way of measuring phosphorylation of its natural substrate, eiF2α. The enzymatic reaction was initiated by incubating with 2 μM ATP and 80 nM of GFP labeled eiF2a substrate at room temperature and then stopped after 90 minutes with EDTA. The amount of phosphorylated eIF2α is determined by TR-FRET (Lanthascreen). […]

Worked cases, answers included:
{"Compound": "Cc1nnc(-c2ccc(-n3nc(Br)c4cnc(N[C@@H]5CCC(C)(CP(C)(C)=O)C5)nc43)cc2CCC#N)s1 (stereo partly shown)", "IC50": "25 to 200 nM"}
{"Compound": "CCNC(=O)[C@]1(C)CC[C@@H](Nc2ncc3c(Br)nn(-c4cc(F)c5ncccc5c4)c3n2)C1", "IC50": "< 25 nM"}
{"Compound": "CNC(=O)[C@@H]1CC[C@@H](Nc2ncc3c(Br)nn(-c4ccc(-c5cnn(CCOC)c5)cc4)c3n2)C1", "IC50": "25 to 200 nM"}
{"Compound": "CNC(=O)[C@]1(C)CC[C@@H](Nc2ncc3c(Br)nn(-c4ccc(-n5cccn5)cc4)c3n2)C1", "IC50": "25 to 200 nM"}
{"Compound": "C[C@]1(C(=O)N2CNC(=O)C2)CC[C@@H](Nc2ncc3c(Br)nn(-c4cc(F)c5ncccc5c4)c3n2)C1", "IC50": "25 to 200 nM"}

[in] Item under review: `CNC(=O)[C@]1(C)CC[C@@H](Nc2ncc3c(Br)nn(-c4ccc5nc(N)ncc5c4)c3n2)C1` . Reported IC50?
[out] 25 to 200 nM

[in] Also, `CN(CC(C)(C)O)C(=O)[C@]1(C)CC[C@@H](Nc2ncc3c(Br)nn(-c4cc(F)c5ncccc5c4)c3n2)C1` please.
[out] < 25 nM

----------
# Assayed system: GCN2 (Homo sapiens, UniProt Q9P2K8)
# Sequence (Q9P2K8 whole entry): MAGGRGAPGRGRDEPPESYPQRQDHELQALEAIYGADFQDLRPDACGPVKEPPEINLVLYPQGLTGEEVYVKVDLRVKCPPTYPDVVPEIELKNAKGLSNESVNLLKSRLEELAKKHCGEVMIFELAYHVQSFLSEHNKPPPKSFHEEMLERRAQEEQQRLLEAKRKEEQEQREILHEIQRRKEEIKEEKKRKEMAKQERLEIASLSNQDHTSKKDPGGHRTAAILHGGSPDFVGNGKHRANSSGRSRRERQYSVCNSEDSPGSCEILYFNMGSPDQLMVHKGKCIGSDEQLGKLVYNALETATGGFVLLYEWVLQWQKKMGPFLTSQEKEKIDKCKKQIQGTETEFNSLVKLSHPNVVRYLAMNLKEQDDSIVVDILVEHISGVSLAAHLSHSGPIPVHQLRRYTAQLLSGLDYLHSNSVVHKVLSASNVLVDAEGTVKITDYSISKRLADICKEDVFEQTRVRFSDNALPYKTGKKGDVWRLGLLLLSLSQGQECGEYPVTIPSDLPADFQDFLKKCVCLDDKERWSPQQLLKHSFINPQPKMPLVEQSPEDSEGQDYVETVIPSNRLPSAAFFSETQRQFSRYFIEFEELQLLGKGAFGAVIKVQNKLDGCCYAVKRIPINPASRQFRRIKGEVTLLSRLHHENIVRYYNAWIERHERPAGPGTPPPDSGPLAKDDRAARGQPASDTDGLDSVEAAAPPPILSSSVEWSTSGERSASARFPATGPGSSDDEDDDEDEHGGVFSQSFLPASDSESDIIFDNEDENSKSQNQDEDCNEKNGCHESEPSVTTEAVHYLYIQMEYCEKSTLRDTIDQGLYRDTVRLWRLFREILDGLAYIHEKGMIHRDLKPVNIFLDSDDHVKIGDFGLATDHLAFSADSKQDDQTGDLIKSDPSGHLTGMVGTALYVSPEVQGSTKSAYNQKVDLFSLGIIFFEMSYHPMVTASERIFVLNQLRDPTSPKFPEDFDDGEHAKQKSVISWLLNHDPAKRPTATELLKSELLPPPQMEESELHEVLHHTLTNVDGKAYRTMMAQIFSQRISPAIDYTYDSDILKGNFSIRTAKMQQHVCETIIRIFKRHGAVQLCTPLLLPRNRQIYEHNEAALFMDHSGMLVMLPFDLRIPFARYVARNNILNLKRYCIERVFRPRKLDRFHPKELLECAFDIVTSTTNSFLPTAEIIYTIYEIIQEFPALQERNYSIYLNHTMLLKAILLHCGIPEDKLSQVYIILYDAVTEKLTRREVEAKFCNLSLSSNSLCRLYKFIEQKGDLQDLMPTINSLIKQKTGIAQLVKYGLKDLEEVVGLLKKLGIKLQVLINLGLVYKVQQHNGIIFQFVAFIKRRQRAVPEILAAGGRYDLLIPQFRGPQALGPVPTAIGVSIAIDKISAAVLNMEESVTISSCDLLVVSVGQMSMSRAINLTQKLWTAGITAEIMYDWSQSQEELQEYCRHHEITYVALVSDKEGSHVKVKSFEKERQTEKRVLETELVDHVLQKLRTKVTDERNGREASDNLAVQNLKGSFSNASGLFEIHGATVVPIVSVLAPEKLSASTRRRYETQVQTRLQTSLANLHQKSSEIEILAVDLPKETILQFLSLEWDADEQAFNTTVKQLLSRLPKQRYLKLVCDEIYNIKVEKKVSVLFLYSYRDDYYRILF
# Assay method text: GCN2 enzymatic endpoint assay: phosphorylation of GFP-eIF2α measured by TR-FRET (Lanthascreen)
# Format: biochemical
# Setup conditions: tested as described in Example 77; compound and/or hydrochloride, dihydrochloride or trifluoroacetic acid salt; read-out: IC 50 Activity
Measured attribute: IC50

{"Compound": "O=C([C@@H]1CC[C@@H](Nc2ncc3c(Br)nn(-c4ccc5ncccc5c4)c3n2)C1)N1CCC(O)(CO)CC1", "IC50": "25 to 200 nM"}
{"Compound": "CNC(=O)[C@]1(C)CC[C@@H](Nc2ncc3c(Br)nn(-c4cc(C#N)cc(CNS(C)(=O)=O)c4)c3n2)C1", "IC50": "25 to 200 nM"}
{"Compound": "O=C(O)C12CCC(Nc3ncc4c(Br)nn(-c5ccc6ncccc6c5)c4n3)(C1)C2", "IC50": "500 to 1000 nM"}

[in] GET /values?readout=IC50&item= CNC(=O)[C@]1(C)CC[C@@H](Nc2ncc3c(Br)nn(-c4ccc5c(c4)OC(C)C(=O)N5C)c3n2)C1 (stereo partly shown)
[out] 25 to 200 nM

[in] Okay, and `N#Cc1cc(-n2nc(Br)c3cnc(N[C@@H]4CC[C@@H](C(=O)NC[C@H]5COCCN5)C4)nc32)cc2cccnc12` ?
[out] < 25 nM

[in] Repeat with CNC(=O)[C@]1(C)CC[C@@H](Nc2ncc3c(Br)nn(-c4ccc(-c5nnc(C)s5)c(CC(N)C(F)(F)F)c4)c3n2)C1 (stereo partly shown)
[out] 25 to 200 nM

[in] Now the same for `O=C([C@@H]1CC[C@@H](Nc2ncc3c(Br)nn(-c4ccc5ncccc5c4)c3n2)C1)N1CC2CCC(C1)O2`
[out] 25 to 200 nM

[in] For `CNC(=O)[C@@H]1CC[C@@H](Nc2ncc3c(Br)nn(-c4cc(OC(F)(F)F)c5ncccc5c4)c3n2)C1` then?
[out] 25 to 200 nM

[in] Next record, please: `CNC(=O)[C@]1(C)CC[C@@H](Nc2ncc3c(Br)nn(-c4cc(Cl)c(F)c(CS(C)(=O)=O)c4)c3n2)C1`
[out] 25 to 200 nM

[in] Next entry: `CNC(=O)[C@]1(C)CC[C@@H](Nc2ncc3c(Br)nn(-c4ccn5c(=O)ccnc5c4)c3n2)C1`
[out] 25 to 200 nM

Hey, just so you know, these numbers are from patent US11046699B2.
